Test system: HOP-62 NSCLC
Assay: NCI-60 one-dose screen, 48 h (100 = growth as untreated, 0 = no growth, -100 = all killed)
Settings: 10 µM unless noted
Experimental: Growth inhibition of the HOP-62 human Non-Small Cell Lung tumor cell line is measured as a screen for anti-cancer activity. Cells are grown in 96 well plates and exposed to the test compound for 48 hours. Compounds are tested at a single concentration, which is 10^-5 M for most compounds. The reported endpoint is percent growth (GI% or GIPRCNT), where numbers from 0 - 100% represent growth inhibition, and numbers from -100% - 0 represent cell death. […]
This is part of a sample that, as a whole, favours compounds with a hit. Of some 83,000 tested, about 20% had one in any assay. Active and inactive are the calls of the source. The calls were made as follows: active = growth percent below 10; inactive = the rest.
Recorded growth by entry

O=C(N=c1n(-c2ccccc2)nc2n1CCN2C1=NCCN1C(=O)c1ccc(Cl)cc1)c1ccc(Cl)cc1	93.5% (inactive)
ClC1=C(Cl)C(Cl)=C(Cl)C1=Cc1ccccc1	-32.7% (active)

# input Give its growth value. Item: `c1ccc(-c2nc(N3CCCNCC3)c3nc(-c4ccccc4)oc3n2)cc1`
# output 78.2% (inactive)

----------
Recorded growth by entry
Test system: COLO 205 colon
Assay: NCI-60 one-dose screen, 48 h (100 = growth as untreated, 0 = no growth, -100 = all killed)
Conditions: 10 µM unless noted
The panel holds about 83,000 compounds, 20% with a hit somewhere; the sample as a whole holds those more often.
Respond numerically; units are % and should not be typed.

COc1cc(C(=O)/C=C/c2c(-c3ccc(F)cc3)nc3sccn23)cc(OC)c1OC	12.3
Cc1cccc(C[C@H](NC(=O)Nc2ccc(Cl)cc2F)C(=O)N[C@@H]2C(=O)N3C[C@H](OC(=O)CCN(C)C)C[C@H]3C(=O)N3CCCC[C@H]3C(=O)N[C@@H](C)C(=O)N3C[C@H](C)C[C@H]3C(=O)O[C@H]2C)c1	9.51
COc1cc(NCc2ccccc2O)c2ncccc2c1	96.9
C[C@@H](NC(=O)[C@@H](CC(=O)N1CCC(N2CCCCC2)CC1)N1C(=O)[C@@H](N2C(=O)OC[C@@H]2c2ccccc2)[C@H]1/C=C/c1cccc(Cl)c1)c1ccccc1	-54.6
COc1cc2c(c(OC)c1OC)-c1cc(I)c(O)cc1[C@@H](NC(C)=O)CC2	-64
O=C(Nc1cccc(C2=NCCN2)c1)c1cccc(C(=O)Nc2cccc(C3=NCCN3)c2)c1	99.8
CCN(CC)c1ccc(/C=C/C=C2\NC(=O)NC2=O)cc1	33.7

Okay, next one:
# input Give its growth value. Item: N#Cc1ccc(-c2ccc(COc3ccc(CC4SC(=O)NC4=O)cc3)cc2)cc1 (stereo not drawn)
# output 103

----------
Test system: DU-145 prostate
Test: NCI-60 one-dose screen, 48 h (100 = growth as untreated, 0 = no growth, -100 = all killed)
Details: 10 µM unless noted
About 83,000 compounds went through this panel and 20% of them were active in at least one assay; those are over-represented in the sample as a whole. Activity calls are given as the source filed them. How the source made its calls: active means growth percent below 10; inactive means the rest.
measured parameter: growth

Cc1cccc([N+](=O)[O-])c1I	116% (inactive)

# input Give its growth value. Item: `CCCCCCCCCCCCCCCCCCNC(=S)N/N=C/c1ccc(OC)c(OC)c1`
# output 102% (inactive)

# input Give its growth value. Item: `O=S(=O)(/N=c1/n(-c2ccccc2)nc2n1CCN2C1=NCCN1)c1ccc(-c2ccccc2)cc1`
# output 108% (inactive)

# input Give its growth value. Item: `C=C(C)[C@@H]1CC[C@]2(COC(=O)c3ccccc3C(=O)O)CC[C@]3(C)[C@H](CC[C@@H]4[C@@]5(C)CC[C@H](OC(=O)c6ccccc6C(=O)O)C(C)(C)[C@@H]5CC[C@]43C)[C@@H]12`
# output 29.7% [100 µM] (inactive)

# input Give its growth value. Item: `Nc1cc(C(=O)O)[nH]c(=S)n1`
# output 106% (inactive)
